tested on: Saccharomyces cerevisiae; assay: protein stability index of tFT-peptide fusion (C-terminal peptide) (PSI (0-1 scale)); higher = more stable (slower turnover); conditions: genetic background: wild type; temperature: 30 C
Measurement label: protein stability index
The reply should be a number, written without any unit.

Query block: Requested field: protein stability index. Item: "GTSCPCGGALRP"
Result block: 0.776

Query block: Report protein stability index for "LSPSSPHLPFPL" please.
Result block: 0.702

* * *

system: Saccharomyces cerevisiae; assay: protein stability index of tFT-peptide fusion (C-terminal peptide) (PSI (0-1 scale)); higher = more stable (slower turnover); conditions: genetic background: das1 deletion; temperature: 30 C
# protein stability index listing for each entry below

Use these answered entries as a reference point.
{"columns": ["Sequence content", "Result"],
 "data": [
  ["DERLEQLKRLGI [HOM3 C-terminal 12 aa]", 0.725],
  ["KETDKVNDENSI [MLP1 C-terminal 12 aa]", 0.708],
  ["TDDKEKLLKTLK [ACC1 C-terminal 12 aa]", 0.698],
  ["LYTFIVKKVKRD [GID12 C-terminal 12 aa]", 0.671],
  ["WEVVTGIRKLLI [PEX12 C-terminal 12 aa]", 0.68]
]}

Now for the sequence whose protein stability index we want.
Query block: Returns the measured protein stability index for the input sequence. Input: NTESSDKGAKIQ [SIN3 C-terminal 12 aa]
Result block: 0.701

* * *

tested on: Saccharomyces cerevisiae; test: protein stability index of tFT-peptide fusion (C-terminal peptide) (PSI (0-1 scale)); higher = more stable (slower turnover); settings: genetic background: doa10 deletion; temperature: 30 C
Output schema: class label derived from protein stability index. Mapping: low bin (below 0.2), mid bin (0.2 to below 0.3), high bin (0.3 or more)

Completed entries (count: 4):
{"columns": ["Sequence content", "Label"],
 "data": [
  ["PPTRVPVTLFLV", "low bin"],
  ["TSFLHLFVAAII", "high bin"],
  ["VCGYGFAVPCYT", "high bin"],
  ["SFVCFFLNLFVY", "low bin"]
]}

For the next question, use this sequence.
Query block: Which of the defined bands does the recorded protein stability index of "ARRFLVRRFILF" sit within?
Result block: low bin

* * *

tested on: Saccharomyces cerevisiae; assay: protein stability index of tFT-peptide fusion (C-terminal peptide) (PSI (0-1 scale)); higher = more stable (slower turnover); settings: genetic background: wild type; temperature: 30 C
Measurement label: protein stability index
The answer should be a number; do not append a unit.

# count of solved cases: 4
{"columns": ["Sequence content", "Target or test system", "Numeric readout"],
 "data": [
  ["EFHQDFFSKYRN [ALT2 C-terminal 12 aa]", "Saccharomyces cerevisiae", 0.729],
  ["KQIVFEIPSETH [RPS7A C-terminal 12 aa]", "Saccharomyces cerevisiae", 0.679],
  ["PSENFATKAKLP [YDR187C C-terminal 12 aa]", "Saccharomyces cerevisiae", 0.71],
  ["NFAMLGLGPNWE [YUH1 C-terminal 12 aa]", "Saccharomyces cerevisiae", 0.725]
]}

Query block: Kindly state the measured protein stability index obtained for AGATTSRFIPLK [RPS15 C-terminal 12 aa] with Saccharomyces cerevisiae.
Result block: 0.652

Query block: Requested read-out protein stability index, target or system Saccharomyces cerevisiae, entry ESEYREQQQNPQ [SHQ1 C-terminal 12 aa]
Result block: 0.686

Query block: Provide value of protein stability index for this record tested with Saccharomyces cerevisiae: AIFTAFTQVVLI [TOH1 C-terminal 12 aa]
Result block: 0.498

Query block: Lookup: protein stability index / Saccharomyces cerevisiae / EDEFLINSDDEM [CUE5 C-terminal 12 aa]
Result block: 0.716

Query block: Please tell me: protein stability index of EHTMLAKAQGHD [XPT1 C-terminal 12 aa] , system Saccharomyces cerevisiae?
Result block: 0.656

* * *

tested on: Saccharomyces cerevisiae; test: protein stability index of tFT-peptide fusion (C-terminal peptide) (PSI (0-1 scale)); higher = more stable (slower turnover); conditions: genetic background: wild type; temperature: 30 C
Binary classification by protein stability index, with 0.7 as an inclusive lower bound for Y; all other cases are N.

{"columns": ["Sequence content", "Label"],
 "data": [
  ["CFLLVSLGILCW", "N"],
  ["IEHYPVSSPKMR", "N"],
  ["LPPSPPAPLSRL", "Y"]
]}

Query block: Given "GRVRYRGSRFLG" , state whether its protein stability index is at least 0.7.
Result block: N

Query block: Kindly determine if protein stability index recorded for "AGVCVAVGGGGF" is above or exactly 0.7.
Result block: N

Query block: Tell me whether protein stability index is at least 0.7 here: "GAGRGRLGVGPV"
Result block: N

Query block: Does the sequence "AGGGRGGGSLRV" have recorded protein stability index that is 0.7 or more?
Result block: N

* * *

tested on: Saccharomyces cerevisiae; assay: protein stability index of tFT-peptide fusion (C-terminal peptide) (PSI (0-1 scale)); higher = more stable (slower turnover); conditions: genetic background: das1 deletion; temperature: 30 C
Measurement label: protein stability index

Some entries whose results are on file:
{"columns": ["Sequence content", "Target or test system", "protein stability index"],
 "data": [
  ["LCGIFTFRLSLL", "Saccharomyces cerevisiae", 0.668],
  ["FWLFAFVIRKHI", "Saccharomyces cerevisiae", 0.324],
  ["WVRLGRSWTTVG", "Saccharomyces cerevisiae", 0.686],
  ["FNLTCLLISFFN", "Saccharomyces cerevisiae", 0.453],
  ["LCFGMVELMWIY", "Saccharomyces cerevisiae", 0.388]
]}

Query block: What does the data say about its protein stability index? Entry: "RFVLVFLVSLII"
Result block: 0.399

* * *

tested on: Saccharomyces cerevisiae; assay: protein stability index of tFT-peptide fusion (C-terminal peptide) (PSI (0-1 scale)); higher = more stable (slower turnover); conditions: genetic background: das1 deletion; temperature: 37 C
Measurement label: protein stability index
A bare number is all that is needed in reply.

Some solved entries appear below for comparison.
{"columns": ["Sequence content", "protein stability index"],
 "data": [
  ["WCFFFVGCCCFG", 0.525],
  ["IRVFSFLLFGCF", 0.546],
  ["WSCVGLWGRFCC", 0.76],
  ["FCVLLFCAVSDL", 0.443]
]}

Query block: Please report the recorded protein stability index for "TLDCKFGRGGIG" .
Result block: 0.401

Query block: Dear colleague, I am looking for the recorded protein stability index of the following sequence: "VSLSWFSCCFVG"
Result block: 0.489

Query block: Fill blank: measured protein stability index of the sequence "RLGSLVPLAKQL" is ____.
Result block: 0.737

Query block: Give the measured protein stability index of "LLLTAIRVLRMH" .
Result block: 0.718

Query block: // query protein stability index value for entry "VGTIVLTCIEVN"
Result block: 0.22

* * *

tested on: Saccharomyces cerevisiae; experiment: protein stability index of tFT-peptide fusion (C-terminal peptide) (PSI (0-1 scale)); higher = more stable (slower turnover); conditions: genetic background: wild type; temperature: 37 C
So basically every entry gets a class from its protein stability index, ranges being lower = under 0.4, middle = from 0.4 up to 0.5, upper = 0.5 and over

Examples from the recorded data:
{"columns": ["Sequence content", "Label"],
 "data": [
  ["WFSVRQLVFVSG", "lower"],
  ["VVVFGWIGYLYL", "middle"],
  ["WFSMSRLWVFYS", "lower"],
  ["FLFLLLFLLLCC", "middle"],
  ["RSGWWQWGRPGT", "upper"],
  ["LLLVCYSTFIVA", "lower"]
]}

Query block: Which category does the recorded protein stability index put "HTYSFRLLFIFL" in?
Result block: middle

Query block: For the record "LFLLSHYALCFY" , report the class its protein stability index corresponds to.
Result block: upper

Query block: Lab log: "VAWWVCIRSCCG" — assign protein stability index category
Result block: upper

Query block: Class? Entry: "KKKEIIKIIKIN"
Result block: lower

Query block: Form: Item = "DDVRFLLWGLCC" ; Class = ?
Result block: lower

Query block: Which band does "FCSFSWFLFLRS" fall in?
Result block: lower

Query block: Class for "LAFMYFVCPRLA" ?
Result block: middle

* * *

test system: Saccharomyces cerevisiae; assay: protein stability index of tFT-peptide fusion (C-terminal peptide) (PSI (0-1 scale)); higher = more stable (slower turnover); settings: genetic background: wild type; temperature: 30 C
Tag: MET if measured protein stability index is not below 0.7, NOT MET if it is.

Query block: Kindly determine if protein stability index recorded for "KRRKKTQESSKA" is above or exactly 0.7.
Result block: MET

Query block: Answer whether protein stability index of "GYAGAIMAGYDP" is greater than or equal to 0.7.
Result block: NOT MET

Query block: For this sequence, is measured protein stability index 0.7 or higher? "LTATNEARNIDH"
Result block: NOT MET

Query block: Given the entry "GYLNSCADKNKV" , answer whether its protein stability index meets or surpasses 0.7.
Result block: NOT MET
